- system.name: HLA-B*5101 (human)
- test.name: competition vs 125I-labeled standard peptide, purified HLA
Assignment: determine reported pIC50 for the given binders.
Give bare numbers, as −log10 of the molar value.

[[record]]
binder = "FPKANKEI (8-mer analog of the HER2/neu peptide starting at position 760; same label as the 9-mer in r54) [Her2/neu.760.F1, 8-mer]"
reported_endpoint = "pIC50"
endpoint_result = 5.60


Would you be so kind as to report pIC50 for each listed record?
1. FPYDGIPI (8-mer analog of the HER2/neu peptide starting at position 921) [Her2/neu.921.F1I8]
2. FPLTPSGAM (9-mer analog of the HER2/neu peptide starting at position 698) [Her2/neu.698.F1]

output:
1: 8.00; 2: 7.15

Answer for every listed entry: what is its pIC50? The entries follow.
1. FPYVSRLL (8-mer analog of the HER2/neu peptide starting at position 779; same label as the 10-mer in r56) [Her2/neu.779.F1, 8-mer]
2. FPAEQRASPL (10-mer analog of the HER2/neu peptide starting at position 642) [Her2/neu.642.F1]
3. FPIKWMAI (8-mer analog of the HER2/neu peptide starting at position 884) [Her2/neu.884.F1I8]
4. FPLTSIISA (9-mer analog of the HER2/neu peptide starting at position 649; same label as the 10-mer in r43) [Her2/neu.649.F1, 9-mer]
5. FPSGAMPNQI (the label names only F1 though the C-terminus is I) [Her2/neu.701.F1]

output:
8.16
6.07
6.91
6.18
6.88
